tested on: RCC10RGB (Kidney Carcinoma); assay: Bliss excess, mean over the matrix (fraction); higher = more synergy
Form field: Bliss excess (one value per entry).
Lab note: jot the number down without any unit.

Below are worked cases with known answers.
compound="Cn1cnc2c(F)c(Nc3ccc(Br)cc3Cl)c(C(=O)NOCCO)cc21 [Selumetinib] + C=CCn1c(=O)c2cnc(Nc3ccc(N4CCN(C)CC4)cc3)nc2n1-c1cccc(C(C)(C)O)n1 [AZD1775] (first compound max 10 µM, partner max 1 µM)" observation_type="Bliss excess" observed_value=-0.0703
compound="CN(CCO)CC[C@H](CSc1ccccc1)Nc1ccc(S(=O)(=O)NC(=O)c2ccc(N3CCC([C@@H](O)c4ccccc4-c4ccc(Cl)cc4)CC3)cc2)cc1S(=O)(=O)C(F)(F)F [AZD4320] + CN(C)CCCOc1ccc(-c2ccc3ncc4c(c3c2)n(C2CCOCC2)c(=O)n4C)cn1 [AZD0156] (first compound max 1 µM, 7x7, partner max 1 µM)" observation_type="Bliss excess" observed_value=-0.09

Record Cc1c2c(nn1C)CSCc1cc(n(C)n1)CSc1cc(c3ccccc3c1)OCCCc1c(C(=O)O)n(C)c3c-2c(Cl)ccc13 [AZD5991] + C=CCn1c(=O)c2cnc(Nc3ccc(N4CCN(C)CC4)cc3)nc2n1-c1cccc(C(C)(C)O)n1 [AZD1775] (first compound max 1 µM, partner max 1 µM) ; system RCC10RGB (Kidney Carcinoma); Bliss excess = -0.0182

###

system: GDM-1 (Acute Myeloid Leukemia); assay: combination Emax (second highest fraction inhibited in the dose matrix, 72 h); higher = more inhibition; extreme values may be limits of the assay
observation.type: combination Emax

Sample answers from the record:
compound="COc1nnc2ccc(N3CCC(c4ccc(OCCN5CCN(C)C(=O)[C@H]5C)cc4)CC3)nn12 [AZD5153] + Cc1c2c(nn1C)CSCc1cc(n(C)n1)CSc1cc(c3ccccc3c1)OCCCc1c(C(=O)O)n(C)c3c-2c(Cl)ccc13 [AZD5991] (first compound max 1 µM, 7x7, partner max 1 µM)" system="GDM-1 (Acute Myeloid Leukemia)" observation_type="combination Emax" observed_value=1
compound="Cn1cnc2c(F)c(Nc3ccc(Br)cc3Cl)c(C(=O)NOCCO)cc21 [Selumetinib] + C[C@@H]1COCCN1C2=NC(=NC(=C2)C3(CC3)[S@](=N)(=O)C)C4=C5C=CNC5=NC=C4 [AZD6738] (first compound max 10 µM, 7x7, partner max 10 µM)" system="GDM-1 (Acute Myeloid Leukemia)" observation_type="combination Emax" observed_value=0.755
compound="NC1(C(=O)N[C@@H](CCO)c2ccc(Cl)cc2)CCN(c2ncnc3[nH]ccc23)CC1 [Capivasertib] + C[C@@H]1COCCN1C2=NC(=NC(=C2)C3(CC3)[S@](=N)(=O)C)C4=C5C=CNC5=NC=C4 [AZD6738] (first compound max 10 µM, 7x7, partner max 10 µM)" system="GDM-1 (Acute Myeloid Leukemia)" observation_type="combination Emax" observed_value=0.734

Now examine the next entry.
# combination Emax of CC(=O)Nc1cccc(-n2c(=O)n(C3CC3)c(=O)c3c(Nc4ccc(I)cc4F)n(C)c(=O)c(C)c32)c1 [Trametinib] + Cc1nc(-c2cn3c(n2)-c2ccc(-c4cnn(C(C)(C)C(N)=O)c4)cc2OCC3)n(C(C)C)n1 [Taselisib] (first compound max 1 µM, 7x7, partner max 10 µM) = 0.88

###

system: YT (Other Blood Carcinomas); experiment: combination Emax (second highest fraction inhibited in the dose matrix, 72 h); higher = more inhibition; extreme values may be limits of the assay
observation.type: combination Emax
Lab note: record just the number, no unit beside it.

Memo: Cn1cnc2c(F)c(Nc3ccc(Br)cc3Cl)c(C(=O)NOCCO)cc21 [Selumetinib] + C[C@@H]1COCCN1C2=NC(=NC(=C2)C3(CC3)[S@](=N)(=O)C)C4=C5C=CNC5=NC=C4 [AZD6738] (first compound max 10 µM, 7x7, partner max 10 µM) , reported combination Emax: 0.801

Reported combination Emax of Cc1c2c(nn1C)CSCc1cc(n(C)n1)CSc1cc(c3ccccc3c1)OCCCc1c(C(=O)O)n(C)c3c-2c(Cl)ccc13 [AZD5991] + C=CCn1c(=O)c2cnc(Nc3ccc(N4CCN(C)CC4)cc3)nc2n1-c1cccc(C(C)(C)O)n1 [AZD1775] (first compound max 1 µM, partner max 1 µM) : 0.998

Briefly, combination Emax measured for Cc1c2c(nn1C)CSCc1cc(n(C)n1)CSc1cc(c3ccccc3c1)OCCCc1c(C(=O)O)n(C)c3c-2c(Cl)ccc13 [AZD5991] + C1CN(CCC1(C(=O)N[C@@H](CCO)C2=CC=C(C=C2)Cl)N)C3=NC=NC4=C3C=CN4 [Capivasertib] (first compound max 1 µM, 7x7, partner max 3 µM) : 1

Just so you know, measured combination Emax for CS(=O)(=O)CCNCc1ccc(-c2ccc3ncnc(Nc4ccc(OCc5cccc(F)c5)c(Cl)c4)c3c2)o1 [Lapatinib] + NC1(c2ccc(-c3nc4ccn5c(=O)[nH]nc5c4cc3-c3ccccc3)cc2)CCC1 [MK-2206] (first compound max 10 µM, 7x7, partner max 10 µM) came out at 0.945

###

Measured combination Emax of individual entries
system: HOP-92 (Non-Small Cell Lung Carcinoma); assay: combination Emax (second highest fraction inhibited in the dose matrix, 72 h); higher = more inhibition; extreme values may be limits of the assay
The answer should be written as a number, with no unit following it.

A selection of reference data follows.
molecule="Cc1c2c(nn1C)CSCc1cc(n(C)n1)CSc1cc(c3ccccc3c1)OCCCc1c(C(=O)O)n(C)c3c-2c(Cl)ccc13 [AZD5991] + C[C@@H](Nc1cc(F)cc(F)c1)c1cc(C(=O)N(C)C)cc2c(=O)cc(N3CCOCC3)oc12 [AZD8186] (first compound max 1 µM, 7x7, partner max 3 µM)" observed_value=0.587
molecule="C[C@@H](c1ccc2nccn2c1)n1nnc2ncc(-c3cnn(C)c3)nc21 [Savolitinib] + CN(CC[C@H](CSC1=CC=CC=C1)NC2=C(C=C(C=C2)S(=O)(=O)NC(=O)C3=CC=C(C=C3)N4CCC(CC4)[C@H](C5=CC=CC=C5C6=CC=C(C=C6)Cl)O)S(=O)(=O)C(F)(F)F)CCO [AZD4320] (first compound max 1 µM, 7x7, partner max 1 µM)" observed_value=0.888

We next turn to a different molecule, shown below.
CC(=O)c1c(C)c2cnc(Nc3ccc(N4CCNCC4)cn3)nc2n(C2CCCC2)c1=O [Palbociclib] + CC1(C)CCC(CN2CCN(c3ccc(C(=O)NS(=O)(=O)c4ccc(NCC5CCOCC5)c([N+](=O)[O-])c4)c(Oc4cnc5[nH]ccc5c4)c3)CC2)=C(c2ccc(Cl)cc2)C1 [Venetoclax] (first compound max 10 µM, 7x7, partner max 1 µM) tested on HOP-92 (Non-Small Cell Lung Carcinoma) gave combination Emax: 0.145

###

test system: SK-MEL-1 (Melanoma); test: Bliss excess, mean over the matrix (fraction); higher = more synergy
Binary classification by Bliss excess, with -0.02 as an inclusive lower bound for class 1; all other cases are class 0.

molecule="NC1(C(=O)N[C@@H](CCO)c2ccc(Cl)cc2)CCN(c2ncnc3[nH]ccc23)CC1 [Capivasertib] + CC(C)n1c(=O)n(C)c2cnc3cc(F)c(-c4ccc(OCCCN5CCCCC5)nc4)cc3c21 [AZD1390] (first compound max 10 µM, 7x7, partner max 0.3 µM)" class="class 0"
molecule="CS(=O)(=O)CCNCc1ccc(-c2ccc3ncnc(Nc4ccc(OCc5cccc(F)c5)c(Cl)c4)c3c2)o1 [Lapatinib] + C[C@@H](Oc1cc(-c2cnn(C3CCNCC3)c2)cnc1N)c1c(Cl)ccc(F)c1Cl [Crizotinib] (first compound max 10 µM, 7x7, partner max 10 µM)" class="class 0"
molecule="CN(CCO)CC[C@H](CSc1ccccc1)Nc1ccc(S(=O)(=O)NC(=O)c2ccc(N3CCC([C@@H](O)c4ccccc4-c4ccc(Cl)cc4)CC3)cc2)cc1S(=O)(=O)C(F)(F)F [AZD4320] + C=CCn1c(=O)c2cnc(Nc3ccc(N4CCN(C)CC4)cc3)nc2n1-c1cccc(C(C)(C)O)n1 [AZD1775] (first compound max 1 µM, partner max 1 µM)" class="class 1"
molecule="Cc1c2c(nn1C)CSCc1cc(n(C)n1)CSc1cc(c3ccccc3c1)OCCCc1c(C(=O)O)n(C)c3c-2c(Cl)ccc13 [AZD5991] + Nc1ccn([C@@H]2O[C@H](CO)[C@@H](O)C2(F)F)c(=O)n1 [Gemcitabine] (first compound max 1 µM, 7x7, partner max 0.3 µM)" class="class 0"
molecule="Cc1c2c(nn1C)CSCc1cc(n(C)n1)CSc1cc(c3ccccc3c1)OCCCc1c(C(=O)O)n(C)c3c-2c(Cl)ccc13 [AZD5991] + CS(=O)(=O)CCNCc1ccc(-c2ccc3ncnc(Nc4ccc(OCc5cccc(F)c5)c(Cl)c4)c3c2)o1 [Lapatinib] (first compound max 1 µM, 7x7, partner max 10 µM)" class="class 1"
molecule="Cc1c2c(nn1C)CSCc1cc(n(C)n1)CSc1cc(c3ccccc3c1)OCCCc1c(C(=O)O)n(C)c3c-2c(Cl)ccc13 [AZD5991] + C1CN(CCC1(C(=O)N[C@@H](CCO)C2=CC=C(C=C2)Cl)N)C3=NC=NC4=C3C=CN4 [Capivasertib] (first compound max 1 µM, 7x7, partner max 3 µM)" class="class 0"

Field: next molecule
Request: Reported Bliss excess at or above -0.02? Cc1c2c(nn1C)CSCc1cc(n(C)n1)CSc1cc(c3ccccc3c1)OCCCc1c(C(=O)O)n(C)c3c-2c(Cl)ccc13 [AZD5991] + Cc1cc2ncnn2cc1Nc1ncc2c(n1)n(C1CCOCC1)c(=O)n2C [AZD7648] (first compound max 1 µM, 7x7, partner max 10 µM)
Result: class 1

Reference for the values: the supplement of paper PMC11061612
